Sourced from paper PMC6965176

# Measured on: EphB4 (Homo sapiens)
# Construct: purchased R&D Systems
# Sequence (P54760 16-987): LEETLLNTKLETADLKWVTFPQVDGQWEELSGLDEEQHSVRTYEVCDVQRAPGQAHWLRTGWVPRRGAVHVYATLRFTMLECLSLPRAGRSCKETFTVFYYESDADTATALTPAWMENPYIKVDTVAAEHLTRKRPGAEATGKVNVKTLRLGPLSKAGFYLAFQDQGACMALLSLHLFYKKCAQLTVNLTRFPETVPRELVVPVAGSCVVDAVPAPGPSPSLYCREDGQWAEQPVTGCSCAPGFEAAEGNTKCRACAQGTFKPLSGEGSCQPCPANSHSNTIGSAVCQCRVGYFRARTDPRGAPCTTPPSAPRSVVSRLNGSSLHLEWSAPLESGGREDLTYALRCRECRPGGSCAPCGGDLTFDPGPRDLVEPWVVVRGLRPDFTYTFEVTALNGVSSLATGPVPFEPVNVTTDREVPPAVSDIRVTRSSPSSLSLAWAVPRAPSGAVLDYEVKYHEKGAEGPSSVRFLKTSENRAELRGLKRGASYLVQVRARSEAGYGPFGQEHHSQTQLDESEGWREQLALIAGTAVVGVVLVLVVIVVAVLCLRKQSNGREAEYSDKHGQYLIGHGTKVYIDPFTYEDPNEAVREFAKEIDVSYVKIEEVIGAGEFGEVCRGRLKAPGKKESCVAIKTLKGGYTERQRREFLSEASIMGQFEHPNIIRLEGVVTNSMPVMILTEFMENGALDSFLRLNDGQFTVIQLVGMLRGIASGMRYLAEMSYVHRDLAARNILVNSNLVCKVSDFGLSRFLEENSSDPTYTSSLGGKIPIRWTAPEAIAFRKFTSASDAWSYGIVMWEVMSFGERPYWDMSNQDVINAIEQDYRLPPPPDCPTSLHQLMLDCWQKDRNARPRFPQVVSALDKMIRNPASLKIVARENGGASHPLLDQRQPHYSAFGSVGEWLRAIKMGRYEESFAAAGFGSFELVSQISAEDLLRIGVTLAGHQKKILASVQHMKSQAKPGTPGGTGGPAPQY
# Assay notes: SPR (BIACore) binding of peptides to immobilized EphB4
# Experimental conditions: Table S1; SPR BIACore, EphB4 immobilized on CM5 chip, 25°C, HBSEP buffer pH 7.4, peptides 1.6-800 nM, duplicate, KD = Koff/Kon, 1:1 Langmuir model
No end group written: not given here.
Metric: Kd (nM)
Please reply with the bare figure in nM and do not write the unit itself.

## Input So what's the measured Kd for this one? TNYLFSPNGPIARA-NH2 [B4-008]
## Output 13
